system: MCF7; experiment: Antiproliferative activity against human MCF7 cells assessed as inhibition of cell growth incubated for 24 hrs by MTT assay; format: functional, cell-based; conditions: MCF7, 24 h
pIC50: −log10 of the molar value.

Molecule: O=C(CCNC(=O)C(Cl)Cl)Nc1ccccc1[As]1SCCCS1
pIC50: 5.45
--
Molecule: O=C(CCCCCNC(=O)C(Cl)Cl)Nc1ccc([As]2SCCCS2)cc1
pIC50: 5.60
--
Molecule: O=C(CCCCCNC(=O)C(Cl)Cl)Nc1ccccc1[As]1SCCCS1
pIC50: 5.68
--
Molecule: O=C(CCCCCCCCCCCNC(=O)C(Cl)Cl)Nc1ccc([As]2SCCCS2)cc1
pIC50: 5.82
--
Molecule: O=C(O)C(Cl)Cl [DICHLOROACETIC ACID]
pIC50: 1.46
--
Molecule: O=C(Nc1ccc([As]2SCCCS2)cc1)C(Cl)Cl
pIC50: 5.75
--
Molecule: O=C(CCCCNC(=O)C(Cl)Cl)Nc1ccc([As]2SCCCS2)cc1
pIC50: 5.03
--
Molecule: O=C(CCCCCCCNC(=O)C(Cl)Cl)Nc1ccccc1[As]1SCCCS1
pIC50: 5.55
--
Molecule: O=C(CCCCCCNC(=O)C(Cl)Cl)Nc1ccc([As]2SCCCS2)cc1
pIC50: 5.71
--
Molecule: O=C(CCCCCCCCCCCNC(=O)C(Cl)Cl)Nc1ccccc1[As]1SCCCS1
pIC50: 5.74
--
Molecule: O=C(CCCCCCNC(=O)C(Cl)Cl)Nc1ccccc1[As]1SCCCS1
pIC50: 5.53
--
Molecule: O=C(CCCCNC(=O)C(Cl)Cl)Nc1ccccc1[As]1SCCCS1
pIC50: 5.27
--
Molecule: O=C(CCCNC(=O)C(Cl)Cl)Nc1ccccc1[As]1SCCCS1
pIC50: 5.55
--
Molecule: O=C(CCNC(=O)C(Cl)Cl)Nc1ccc([As]2SCCCS2)cc1
pIC50: 5.49
--
Molecule: O=C(CCCCCCCNC(=O)C(Cl)Cl)Nc1ccc([As]2SCCCS2)cc1
pIC50: 5.72
--
Molecule: O=C(Nc1ccccc1[As]1SCCCS1)C(Cl)Cl
pIC50: 6.11
--
Molecule: O=C(CCCNC(=O)C(Cl)Cl)Nc1ccc([As]2SCCCS2)cc1
pIC50: 5.17
